molecular target: Voltage-gated inwardly rectifying potassium channel KCNH2 (Homo sapiens); assay: Inhibition of human ERG by patch clamp method
Sequence (Q12809 whole entry): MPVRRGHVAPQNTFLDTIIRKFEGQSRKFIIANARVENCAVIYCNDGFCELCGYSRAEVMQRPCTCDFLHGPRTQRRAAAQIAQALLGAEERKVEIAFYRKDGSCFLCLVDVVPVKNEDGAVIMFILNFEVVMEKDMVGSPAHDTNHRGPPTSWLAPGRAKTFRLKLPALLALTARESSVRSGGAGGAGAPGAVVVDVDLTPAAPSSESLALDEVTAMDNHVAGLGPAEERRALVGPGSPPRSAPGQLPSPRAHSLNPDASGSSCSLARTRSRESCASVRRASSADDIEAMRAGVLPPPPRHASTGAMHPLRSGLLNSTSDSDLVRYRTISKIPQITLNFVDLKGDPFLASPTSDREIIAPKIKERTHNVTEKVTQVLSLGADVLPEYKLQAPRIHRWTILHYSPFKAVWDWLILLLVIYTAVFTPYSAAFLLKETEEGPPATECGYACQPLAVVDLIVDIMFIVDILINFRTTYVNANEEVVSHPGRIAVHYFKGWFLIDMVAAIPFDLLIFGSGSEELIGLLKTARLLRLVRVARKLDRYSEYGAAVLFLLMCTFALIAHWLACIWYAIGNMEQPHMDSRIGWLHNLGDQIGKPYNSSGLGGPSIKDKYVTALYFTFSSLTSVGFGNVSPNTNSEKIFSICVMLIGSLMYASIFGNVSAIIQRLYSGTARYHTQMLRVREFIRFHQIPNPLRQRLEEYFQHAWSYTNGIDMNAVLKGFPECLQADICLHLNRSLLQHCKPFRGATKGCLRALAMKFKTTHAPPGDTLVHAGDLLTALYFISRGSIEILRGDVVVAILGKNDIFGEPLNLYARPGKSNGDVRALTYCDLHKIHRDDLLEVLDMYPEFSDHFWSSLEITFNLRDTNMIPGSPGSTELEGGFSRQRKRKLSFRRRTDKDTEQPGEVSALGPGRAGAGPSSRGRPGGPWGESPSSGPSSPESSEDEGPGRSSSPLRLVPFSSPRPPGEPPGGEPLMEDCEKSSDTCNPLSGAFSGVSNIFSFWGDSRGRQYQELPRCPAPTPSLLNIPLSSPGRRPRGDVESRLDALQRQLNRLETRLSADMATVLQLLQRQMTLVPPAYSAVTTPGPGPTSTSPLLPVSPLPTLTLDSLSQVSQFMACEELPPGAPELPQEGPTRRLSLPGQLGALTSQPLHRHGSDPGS
ENDPOINT: IC50

[[record]]
compound = "Cn1cc(Nc2nccc(-c3ccc4c(c3)CN(C3COC3)CC[C@H]4NC(=O)c3cn(C(C)(C)C)nn3)n2)cn1 [BIIB-091]"
endpoint = "IC50"
reported_result = "> 25 µM"


###

assay: Half life in Beagle dog at 5 mg/kg, po; format: ADME, organism-based, Canis lupus familiaris; conditions: in vivo
ENDPOINT: half-life (h)

[[record]]
compound_structure_string = "CC(C)OC1CN(C(=O)N[C@@H]2CCCCc3cc(-c4ccnc(Nc5cnn(C)c5)n4)ccc32)C1"
reported_result = 2.4

[[record]]
compound_structure_string = "Cc1cc(-c2ccnc(Nc3cnn(C)c3)n2)ccc1CNC(=O)N1CC(OC(C)C)C1"
reported_result = 2.1


###

molecular target: Voltage-dependent L-type calcium channel subunit alpha-1C (Homo sapiens); assay: Inhibition of human Cav1.2
pIC50: −log10 of the molar value.
ENDPOINT: pIC50

[[record]]
compound = "Cn1cc(Nc2nccc(-c3ccc4c(c3)CN(C3COC3)CC[C@H]4NC(=O)c3cn(C(C)(C)C)nn3)n2)cn1 [BIIB-091]"
reported_result = "< 4.60"


###

biological target: Sodium channel protein type 5 subunit alpha (Homo sapiens); assay: Inhibition of phasic human Nav1.5; type: toxicity
Sequence (Q14524 whole entry): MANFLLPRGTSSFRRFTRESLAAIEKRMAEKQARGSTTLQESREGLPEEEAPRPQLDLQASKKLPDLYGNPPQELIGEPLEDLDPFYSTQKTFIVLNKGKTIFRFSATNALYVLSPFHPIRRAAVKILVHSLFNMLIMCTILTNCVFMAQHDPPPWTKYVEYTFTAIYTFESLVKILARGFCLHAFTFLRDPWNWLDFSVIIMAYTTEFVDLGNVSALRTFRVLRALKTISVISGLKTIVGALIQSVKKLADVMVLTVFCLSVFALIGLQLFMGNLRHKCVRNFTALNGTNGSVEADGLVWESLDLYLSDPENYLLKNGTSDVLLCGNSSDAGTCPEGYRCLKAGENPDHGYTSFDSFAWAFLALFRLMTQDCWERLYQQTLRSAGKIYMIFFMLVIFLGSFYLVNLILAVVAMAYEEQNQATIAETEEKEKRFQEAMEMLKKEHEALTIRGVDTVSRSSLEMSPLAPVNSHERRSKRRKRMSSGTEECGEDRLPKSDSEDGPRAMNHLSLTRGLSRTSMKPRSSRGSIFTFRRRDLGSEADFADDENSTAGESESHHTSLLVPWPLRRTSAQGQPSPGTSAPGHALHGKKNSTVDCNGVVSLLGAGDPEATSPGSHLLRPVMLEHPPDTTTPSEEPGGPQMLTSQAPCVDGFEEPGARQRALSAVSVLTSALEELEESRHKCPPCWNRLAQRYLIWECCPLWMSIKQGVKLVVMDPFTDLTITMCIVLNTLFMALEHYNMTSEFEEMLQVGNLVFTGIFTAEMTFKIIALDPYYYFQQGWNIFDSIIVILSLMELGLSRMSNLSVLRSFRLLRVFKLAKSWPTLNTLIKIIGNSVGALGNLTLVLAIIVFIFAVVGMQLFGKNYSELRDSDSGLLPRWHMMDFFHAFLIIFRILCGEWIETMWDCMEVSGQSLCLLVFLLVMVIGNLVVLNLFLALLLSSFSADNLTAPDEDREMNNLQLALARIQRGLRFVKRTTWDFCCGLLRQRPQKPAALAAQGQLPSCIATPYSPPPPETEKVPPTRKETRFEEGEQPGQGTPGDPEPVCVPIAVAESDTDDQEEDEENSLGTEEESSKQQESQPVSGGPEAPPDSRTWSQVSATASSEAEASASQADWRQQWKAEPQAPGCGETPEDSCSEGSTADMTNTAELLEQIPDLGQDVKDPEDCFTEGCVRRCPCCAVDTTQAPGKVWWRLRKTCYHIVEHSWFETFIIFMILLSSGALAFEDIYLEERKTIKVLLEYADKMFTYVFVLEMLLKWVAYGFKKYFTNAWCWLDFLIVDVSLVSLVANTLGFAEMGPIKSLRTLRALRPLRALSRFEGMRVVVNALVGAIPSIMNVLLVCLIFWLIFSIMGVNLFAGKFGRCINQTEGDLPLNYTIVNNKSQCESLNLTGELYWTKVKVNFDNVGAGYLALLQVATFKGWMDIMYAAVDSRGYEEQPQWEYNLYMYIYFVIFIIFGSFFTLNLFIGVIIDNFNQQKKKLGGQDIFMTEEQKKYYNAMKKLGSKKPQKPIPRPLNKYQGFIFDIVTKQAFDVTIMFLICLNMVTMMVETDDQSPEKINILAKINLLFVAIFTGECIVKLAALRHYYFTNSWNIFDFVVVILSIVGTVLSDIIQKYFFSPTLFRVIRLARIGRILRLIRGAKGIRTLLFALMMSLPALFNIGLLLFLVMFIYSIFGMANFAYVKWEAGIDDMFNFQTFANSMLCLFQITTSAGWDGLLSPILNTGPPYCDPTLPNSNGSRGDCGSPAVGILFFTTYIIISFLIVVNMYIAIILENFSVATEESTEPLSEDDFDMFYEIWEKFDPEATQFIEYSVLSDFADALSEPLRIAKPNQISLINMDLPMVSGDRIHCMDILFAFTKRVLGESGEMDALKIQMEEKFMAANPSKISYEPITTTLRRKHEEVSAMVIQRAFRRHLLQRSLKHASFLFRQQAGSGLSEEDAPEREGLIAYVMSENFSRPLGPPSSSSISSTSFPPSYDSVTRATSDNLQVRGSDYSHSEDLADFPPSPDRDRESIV
pIC50: −log10 of the molar value.
ENDPOINT: pIC50

[[record]]
compound_structure_string = "Cn1cc(Nc2nccc(-c3ccc4c(c3)CN(C3COC3)CC[C@H]4NC(=O)c3cn(C(C)(C)C)nn3)n2)cn1"
reported_result = "< 4.60"


###

experiment: Protein binding in human plasma assessed as unbound fraction at 2 uM by rapid equilibrium dialysis method; format: ADME, cell-free
ENDPOINT: fraction unbound at 2 µM

[[record]]
compound_structure_string = "Cn1cc(Nc2nccc(-c3ccc4c(c3)CCCC[C@H]4NC(=O)c3nc(C(C)(C)C)no3)n2)cn1"
reported_result = 0.008

[[record]]
compound_structure_string = "Cn1cc(Nc2nccc(-c3ccc4c(c3)CCCC[C@H]4NC(=O)c3cn(C(C)(C)C)nn3)n2)cn1"
reported_result = 0.011

[[record]]
compound_structure_string = "Cc1cc(-c2ccnc(Nc3cnn(C)c3)n2)ccc1CNC(=O)N1CC(OC(C)C)C1"
reported_result = 0.06

[[record]]
compound_structure_string = "CC(C)OC1CN(C(=O)N[C@@H]2CCCCc3cc(-c4ccnc(Nc5cnn(C)c5)n4)ccc32)C1"
reported_result = 0.07

[[record]]
compound_structure_string = "Cn1cc(Nc2nccc(-c3ccc4c(c3)CCCC[C@H]4NC(=O)c3nnc(C(C)(C)C)o3)n2)cn1"
reported_result = 0.041

[[record]]
compound_structure_string = "Cn1cc(Nc2nccc(-c3ccc4c(c3)CNCC[C@H]4NC(=O)c3cn(C(C)(C)C)nn3)n2)cn1"
reported_result = 0.18

[[record]]
compound_structure_string = "Cn1cc(Nc2nccc(-c3ccc4c(c3)CCNC[C@H]4NC(=O)c3cn(C(C)(C)C)nn3)n2)cn1"
reported_result = 0.12

[[record]]
compound_structure_string = "CN1CCc2cc(-c3ccnc(Nc4cnn(C)c4)n3)ccc2[C@H](NC(=O)c2cn(C(C)(C)C)nn2)C1"
reported_result = 0.07

[[record]]
compound_structure_string = "CN1CC[C@@H](NC(=O)c2cn(C(C)(C)C)nn2)c2ccc(-c3ccnc(Nc4cnn(C)c4)n3)cc2C1"
reported_result = 0.19

[[record]]
compound_structure_string = "COCCN1CC[C@@H](NC(=O)c2cn(C(C)(C)C)nn2)c2ccc(-c3ccnc(Nc4cnn(C)c4)n3)cc2C1"
reported_result = 0.1

[[record]]
compound_structure_string = "Cn1cc(Nc2nccc(-c3ccc4c(c3)CN(C3COC3)CC[C@H]4NC(=O)c3cn(C(C)(C)C)nn3)n2)cn1"
reported_result = 0.26


###

experiment: Clearance in Beagle dog at 1 mg/kg, iv; type: ADME, organism-based, Canis lupus familiaris; details: in vivo
ENDPOINT: clearance

[[record]]
compound_structure_string = "CC(C)OC1CN(C(=O)N[C@@H]2CCCCc3cc(-c4ccnc(Nc5cnn(C)c5)n4)ccc32)C1"
reported_result = "4 mL/min/kg"


###

experiment: AUC in Sprague-Dawley rat at 5 mg/kg, po; format: ADME, organism-based; design: dose 5 mg/kg; details: in vivo
ENDPOINT: AUC (ng·h/mL)

[[record]]
compound_structure_string = "CC(C)OC1CN(C(=O)N[C@@H]2CCCCc3cc(-c4ccnc(Nc5cnn(C)c5)n4)ccc32)C1"
reported_result = 6940


###

Each entry below carries its recorded IC50.
target: Tyrosine-protein kinase BTK (Homo sapiens, UniProt Q06187); assay: Inhibition of BTK phosphorylation in human whole blood assessed as reduction in BTK phosphorylation incubated for 30 mins; assay type: tissue-based
Sequence (Q06187 whole entry): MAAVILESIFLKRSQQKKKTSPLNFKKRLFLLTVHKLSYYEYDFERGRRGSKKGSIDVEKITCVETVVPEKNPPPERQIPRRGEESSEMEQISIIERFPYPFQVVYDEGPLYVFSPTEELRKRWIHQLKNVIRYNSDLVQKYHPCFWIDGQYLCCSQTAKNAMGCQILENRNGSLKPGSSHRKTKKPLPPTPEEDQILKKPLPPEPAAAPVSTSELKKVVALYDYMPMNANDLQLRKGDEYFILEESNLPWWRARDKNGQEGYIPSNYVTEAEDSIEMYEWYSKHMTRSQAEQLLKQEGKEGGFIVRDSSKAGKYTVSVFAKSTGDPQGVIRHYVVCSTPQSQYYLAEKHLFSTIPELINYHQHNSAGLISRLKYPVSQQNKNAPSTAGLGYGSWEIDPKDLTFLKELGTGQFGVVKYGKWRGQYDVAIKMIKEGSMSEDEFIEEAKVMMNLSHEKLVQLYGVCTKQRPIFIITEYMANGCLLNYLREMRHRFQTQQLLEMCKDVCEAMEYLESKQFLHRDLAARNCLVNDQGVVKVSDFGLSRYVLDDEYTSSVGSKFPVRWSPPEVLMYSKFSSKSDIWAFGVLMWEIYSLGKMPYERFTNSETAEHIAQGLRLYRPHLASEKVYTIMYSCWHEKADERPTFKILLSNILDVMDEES
ENDPOINT: IC50

[[record]]
molecule = "Cc1c(NC(=O)c2cc3c(s2)CCCC3)cccc1-c1cn(C)c(=O)c(Nc2ccc(C3CN(C)CC(=O)N3C)cc2)n1 (configuration not stated)"
reported_result = "0.15 µM"

[[record]]
molecule = "Cc1c(-c2c(F)cc(C(N)=O)c3[nH]c4c(c23)CC[C@H](C(C)(C)O)C4)cccc1-n1c(=O)c2cccc(F)c2n(C)c1=O"
reported_result = "0.11 µM"


###

assay: Lipophilicity, logD of the compound at pH 7.6 by shake flask assay; assay type: physicochemical; settings: buffer
ENDPOINT: logD

[[record]]
compound_structure_string = "Cn1cc(Nc2nccc(-c3ccc4c(c3)CN(C3COC3)CC[C@H]4NC(=O)c3cn(C(C)(C)C)nn3)n2)cn1"
reported_result = 2.2

[[record]]
compound_structure_string = "Cn1cc(Nc2nccc(-c3ccc4c(c3)CNCC[C@H]4NC(=O)c3cn(C(C)(C)C)nn3)n2)cn1"
reported_result = 2.9

[[record]]
compound_structure_string = "Cn1cc(Nc2nccc(-c3ccc4c(c3)CCCC[C@H]4NC(=O)c3nnc(C(C)(C)C)o3)n2)cn1"
reported_result = 2.3


###

assay: Solubility of the compound in simulated gastric fluid at pH 1.6; type: physicochemical
ENDPOINT: solubility

[[record]]
compound_structure_string = "CC(C)OC1CN(C(=O)N[C@@H]2CCCCc3cc(-c4ccnc(Nc5cnn(C)c5)n4)ccc32)C1"
reported_result = "> 15 mg/mL"


###

assay: AUC in Beagle dog at 5 mg/kg, po; assay type: ADME, organism-based, Canis lupus familiaris; set-up: dose 5 mg/kg; settings: in vivo
ENDPOINT: AUC

[[record]]
compound_structure_string = "CC(C)OC1CN(C(=O)N[C@@H]2CCCCc3cc(-c4ccnc(Nc5cnn(C)c5)n4)ccc32)C1"
reported_result = "14200 ng·h/mL"


###

assay: Volume of distribution at steady state in Sprague-Dawley rat at 1 mg/kg, iv; assay type: ADME, organism-based; settings: in vivo, read-out: Vdss
ENDPOINT: Vd

[[record]]
compound_structure_string = "CC(C)OC1CN(C(=O)N[C@@H]2CCCCc3cc(-c4ccnc(Nc5cnn(C)c5)n4)ccc32)C1"
endpoint = "Vd"
reported_result = "0.6 L/kg"


###

assay: Lipophilicity, logD of the compound at pH 7.6 by shake flask assay; assay type: physicochemical; conditions: buffer
Checkbox rule: logD lower than 3 = label 1; logD not lower than 3 = label 0.

[[record]]
compound_structure_string = "Cn1cc(Nc2nccc(-c3ccc4c(c3)CCCC[C@H]4NC(=O)c3cn(C(C)(C)C)nn3)n2)cn1"
label = "label 0"

[[record]]
compound_structure_string = "CC(C)OC1CN(C(=O)N[C@@H]2CCCCc3cc(-c4ccnc(Nc5cnn(C)c5)n4)ccc32)C1"
label = "label 0"

[[record]]
compound_structure_string = "CN1CCc2cc(-c3ccnc(Nc4cnn(C)c4)n3)ccc2[C@H](NC(=O)c2cn(C(C)(C)C)nn2)C1"
label = "label 1"

[[record]]
compound_structure_string = "Cn1cc(Nc2nccc(-c3ccc4c(c3)CCCC[C@H]4NC(=O)c3nc(C(C)(C)C)no3)n2)cn1"
label = "label 1"

[[record]]
compound_structure_string = "Cc1cc(-c2ccnc(Nc3cnn(C)c3)n2)ccc1CNC(=O)N1CC(OC(C)C)C1"
label = "label 1"

[[record]]
compound_structure_string = "CN1CC[C@@H](NC(=O)c2cn(C(C)(C)C)nn2)c2ccc(-c3ccnc(Nc4cnn(C)c4)n3)cc2C1"
label = "label 1"

[[record]]
compound_structure_string = "Cn1cc(Nc2nccc(-c3ccc4c(c3)CCNC[C@H]4NC(=O)c3cn(C(C)(C)C)nn3)n2)cn1"
label = "label 1"

[[record]]
compound_structure_string = "COCCN1CC[C@@H](NC(=O)c2cn(C(C)(C)C)nn2)c2ccc(-c3ccnc(Nc4cnn(C)c4)n3)cc2C1"
label = "label 1"


###

test: Clearance in Sprague-Dawley rat at 1 mg/kg, iv; assay type: ADME, organism-based; conditions: in vivo
ENDPOINT: clearance (mL/min/kg)

[[record]]
compound_structure_string = "CC(C)OC1CN(C(=O)N[C@@H]2CCCCc3cc(-c4ccnc(Nc5cnn(C)c5)n4)ccc32)C1"
endpoint = "clearance"
output_unit = "mL/min/kg"
reported_result = 6

